Consider the following sequences and their measured apparent Kd readings.
Tested on: MS2 coat protein
Assay: apparent Kd, MS2 coat protein; higher = weaker binding; RNA-MaP array; FMN 200 µM where present
Conditions: designed as: OFF switch for flavin mononucleotide; no ligand
Dear colleague, please return just the value in nM, with no unit written.

>  <biosequence>
AAAGCACGAGGAUAUACAUGAGGAUCACCCAUGUAUAACCAACAUAGGUGAUCCUCAUGUAGAAGGCGUGCAAA

>  <endpoint_value>
18.6

$$$$
>  <biosequence>
UCUUAAGGAGGAUAUACAUGAGGAUCACCCAUGUAUGACCGCAGGGCGUCCUUGUAUCGUAGAAGGCCUCGGUA

>  <endpoint_value>
33.3

$$$$
>  <biosequence>
UUAUACGCUGAGGAUAUUAUCACUGAGAGGUGAUGAGAAGGCGGUACAUGAGGAUCACCCAUGUCUAUGGGCAG

>  <endpoint_value>
282

$$$$

Turning to the following sequence.
# apparent Kd (sequence: `UCACGGUAUGUAGGAUAUGCAUAGCAUUGCUAUGCAGAAGGACAUGAGGAUCACCCAUGUAUGUAUUCCAUACUAAUCCCGUGU` ) is 6.15
